Known Related Substances HN33177 by entry:
- Assay Notes: Stability indicating HPLC assay and related substances on storage (Example 3)
- Assay type: physicochemical
- Measurement Setup: 1 month, 60° C.
I only need the number, in %, no unit after it.

Examples with answers:
[[record]]
molecule = "CN1CCC23c4c5ccc(O)c4OC2C(OC2OC(C(=O)O)C(O)C(O)C2O)C=CC3C1C5.CN1CCC23c4c5ccc(O)c4OC2C(OC2OC(C(=O)O)C(O)C(O)C2O)C=CC3C1C5.O=C(O)C=CC(=O)O (stereo not shown) [Morphine-6-glucuronide maleate]"
value_reported = 0.50

[[record]]
molecule = "Br.CN1CC[C@]23c4c5ccc(O)c4O[C@H]2[C@@H](O[C@@H]2O[C@H](C(=O)O)[C@@H](O)[C@H](O)[C@H]2O)C=C[C@H]3[C@H]1C5 [Morphine-6-glucuronide hydrobromide]"
value_reported = 0.66


Suppose we examine the molecule CN1CCC23c4c5ccc(O)c4OC2C(OC2OC(C(=O)O)C(O)C(O)C2O)C=CC3C1C5.CN1CCC23c4c5ccc(O)c4OC2C(OC2OC(C(=O)O)C(O)C(O)C2O)C=CC3C1C5.O=S(=O)(O)O (stereo not shown) [Morphine-6-glucuronide sulphate] ; what Known Related Substances HN33177 value has been reported? 0.23

Would you mind telling me what Known Related Substances HN33177 value was observed for CN1CC[C@]23c4c5ccc(O)c4O[C@H]2[C@@H](O[C@@H]2O[C@H](C(=O)O)[C@@H](O)[C@H](O)[C@H]2O)C=C[C@H]3[C@H]1C5.Cl [Morphine-6-glucuronide hydrochloride] ? 0.12

----------
Reported Colour values for the following compounds.
- Assay Notes: Colour of solution by visible spectrophotometry on storage (Example 3)
- Format: physicochemical
- Measurement Setup: Initial; 5% w/v solution in water
The figure you give is taken to be in Abs@420 nm; do not add the unit.

Examples from the recorded data:
[[record]]
compound = "CN1CC[C@]23c4c5ccc(O)c4O[C@H]2[C@@H](O[C@@H]2O[C@H](C(=O)O)[C@@H](O)[C@H](O)[C@H]2O)C=C[C@H]3[C@H]1C5.Cl [Morphine-6-glucuronide hydrochloride]"
unit_of_measurement = "Abs@420 nm"
value_reported = 0.059

[[record]]
compound = "CN1CCC23c4c5ccc(O)c4OC2C(OC2OC(C(=O)O)C(O)C(O)C2O)C=CC3C1C5.CN1CCC23c4c5ccc(O)c4OC2C(OC2OC(C(=O)O)C(O)C(O)C2O)C=CC3C1C5.O=C(O)C=CC(=O)O (stereo not shown) [Morphine-6-glucuronide maleate]"
unit_of_measurement = "Abs@420 nm"
value_reported = 0.017

[[record]]
compound = "CN1CCC23c4c5ccc(O)c4OC2C(OC2OC(C(=O)O)C(O)C(O)C2O)C=CC3C1C5.O=P(O)(O)O (stereo not shown) [Morphine-6-glucuronide phosphate]"
unit_of_measurement = "Abs@420 nm"
value_reported = 0.034

[[record]]
compound = "CN1CC[C@]23c4c5ccc(O)c4O[C@H]2[C@@H](O[C@@H]2O[C@H](C(=O)O)[C@@H](O)[C@H](O)[C@H]2O)C=C[C@H]3[C@H]1C5 [Morphine-6-glucuronide base, morphine-6-β-D-glucuronide]"
unit_of_measurement = "Abs@420 nm"
value_reported = 0.017

[[record]]
compound = "Br.CN1CC[C@]23c4c5ccc(O)c4O[C@H]2[C@@H](O[C@@H]2O[C@H](C(=O)O)[C@@H](O)[C@H](O)[C@H]2O)C=C[C@H]3[C@H]1C5 [Morphine-6-glucuronide hydrobromide]"
unit_of_measurement = "Abs@420 nm"
value_reported = 0.029


Bench note: what Colour did CN1CCC23c4c5ccc(O)c4OC2C(OC2OC(C(=O)O)C(O)C(O)C2O)C=CC3C1C5.CN1CCC23c4c5ccc(O)c4OC2C(OC2OC(C(=O)O)C(O)C(O)C2O)C=CC3C1C5.O=C(O)C=CC(=O)O (stereo not shown) [Morphine-6-glucuronide fumarate] show? 0.016

Query (compound): CN1CCC23c4c5ccc(O)c4OC2C(OC2OC(C(=O)O)C(O)C(O)C2O)C=CC3C1C5.CN1CCC23c4c5ccc(O)c4OC2C(OC2OC(C(=O)O)C(O)C(O)C2O)C=CC3C1C5.O=S(=O)(O)O (stereo not shown) [Morphine-6-glucuronide sulphate] ; field requested: Colour 0.136

----------
- Assay Notes: Stability indicating HPLC assay and related substances on storage (Example 3)
- Assay type: physicochemical
- Measurement Setup: 3 months, 25° C./60% RH
Listing of entries alongside the reported Total Unknown.
Enter your answer as a number in %; do not include the unit.

[[record]]
molecule = "CN1CCC23c4c5ccc(O)c4OC2C(OC2OC(C(=O)O)C(O)C(O)C2O)C=CC3C1C5.CN1CCC23c4c5ccc(O)c4OC2C(OC2OC(C(=O)O)C(O)C(O)C2O)C=CC3C1C5.O=S(=O)(O)O (centres unmarked) [Morphine-6-glucuronide sulphate]"
unit_of_measurement = "%"
value_reported = 6.58


Next item in the queue.
Look up Total Unknown: CN1CC[C@]23c4c5ccc(O)c4O[C@H]2[C@@H](O[C@@H]2O[C@H](C(=O)O)[C@@H](O)[C@H](O)[C@H]2O)C=C[C@H]3[C@H]1C5.Cl [Morphine-6-glucuronide hydrochloride] 7.47

----------
- Assay Notes: Stability indicating HPLC assay and related substances on storage (Example 3)
- Format: physicochemical
- Measurement Setup: 1 month, 60° C.
- Description: Assay (% w/w) and related substances determination Each test material was stored between 2-8*C prior to placing on stability. Each material was sub-divided into 900 mg aliquots, transferred to brown opaque HDPE plastic bottles and flushed with Argon prior to sealing. Sufficient samples were provided for each time point as well as spares for each storage condition. The samples were placed in appropriate incubators previously commissioned at storage conditions 25° C./60% RH, 40° C./75% RH and 60° C. […]
Recorded Metric: Total Known (%)
Number in %, nothing else.

# count of solved cases: 2
[[record]]
molecule = "CN1CCC23c4c5ccc(O)c4OC2C(OC2OC(C(=O)O)C(O)C(O)C2O)C=CC3C1C5.CN1CCC23c4c5ccc(O)c4OC2C(OC2OC(C(=O)O)C(O)C(O)C2O)C=CC3C1C5.O=C(O)C=CC(=O)O (stereo not drawn) [Morphine-6-glucuronide fumarate]"
value_reported = 1.91

[[record]]
molecule = "CN1CCC23c4c5ccc(O)c4OC2C(OC2OC(C(=O)O)C(O)C(O)C2O)C=CC3C1C5.CN1CCC23c4c5ccc(O)c4OC2C(OC2OC(C(=O)O)C(O)C(O)C2O)C=CC3C1C5.O=S(=O)(O)O (stereo not drawn) [Morphine-6-glucuronide sulphate]"
value_reported = 4.55


Which Total Known value belongs to CN1CCC23c4c5ccc(O)c4OC2C(OC2OC(C(=O)O)C(O)C(O)C2O)C=CC3C1C5.O=P(O)(O)O (stereo not drawn) [Morphine-6-glucuronide phosphate] ? 2.08

----------
// Known Related Substances HN33177 lookup, one value per entry
- Assay Notes: Stability indicating HPLC assay and related substances on storage (Example 3)
- Format: physicochemical
- Measurement Setup: Initial

Use the examples below as a reference point.
[[record]]
compound = "Br.CN1CC[C@]23c4c5ccc(O)c4O[C@H]2[C@@H](O[C@@H]2O[C@H](C(=O)O)[C@@H](O)[C@H](O)[C@H]2O)C=C[C@H]3[C@H]1C5 [Morphine-6-glucuronide hydrobromide]"
recorded_metric = "Known Related Substances HN33177"
value_reported = "0.72%"

[[record]]
compound = "CN1CC[C@]23c4c5ccc(O)c4O[C@H]2[C@@H](O[C@@H]2O[C@H](C(=O)O)[C@@H](O)[C@H](O)[C@H]2O)C=C[C@H]3[C@H]1C5.Cl [Morphine-6-glucuronide hydrochloride]"
recorded_metric = "Known Related Substances HN33177"
value_reported = "0.63%"

[[record]]
compound = "CN1CCC23c4c5ccc(O)c4OC2C(OC2OC(C(=O)O)C(O)C(O)C2O)C=CC3C1C5.O=P(O)(O)O (stereo not shown) [Morphine-6-glucuronide phosphate]"
recorded_metric = "Known Related Substances HN33177"
value_reported = "0.75%"

[[record]]
compound = "CN1CCC23c4c5ccc(O)c4OC2C(OC2OC(C(=O)O)C(O)C(O)C2O)C=CC3C1C5.CN1CCC23c4c5ccc(O)c4OC2C(OC2OC(C(=O)O)C(O)C(O)C2O)C=CC3C1C5.O=S(=O)(O)O (stereo not shown) [Morphine-6-glucuronide sulphate]"
recorded_metric = "Known Related Substances HN33177"
value_reported = "0.69%"

[[record]]
compound = "CN1CCC23c4c5ccc(O)c4OC2C(OC2OC(C(=O)O)C(O)C(O)C2O)C=CC3C1C5.CN1CCC23c4c5ccc(O)c4OC2C(OC2OC(C(=O)O)C(O)C(O)C2O)C=CC3C1C5.O=C(O)C=CC(=O)O (stereo not shown) [Morphine-6-glucuronide fumarate]"
recorded_metric = "Known Related Substances HN33177"
value_reported = "0.77%"

[[record]]
compound = "CN1CCC23c4c5ccc(O)c4OC2C(OC2OC(C(=O)O)C(O)C(O)C2O)C=CC3C1C5.CN1CCC23c4c5ccc(O)c4OC2C(OC2OC(C(=O)O)C(O)C(O)C2O)C=CC3C1C5.O=C(O)C=CC(=O)O (stereo not shown) [Morphine-6-glucuronide maleate]"
recorded_metric = "Known Related Substances HN33177"
value_reported = "0.76%"


Please find the next compound below.
Would you mind telling me what Known Related Substances HN33177 value was observed for CN1CC[C@]23c4c5ccc(O)c4O[C@H]2[C@@H](O[C@@H]2O[C@H](C(=O)O)[C@@H](O)[C@H](O)[C@H]2O)C=C[C@H]3[C@H]1C5 [Morphine-6-glucuronide base, morphine-6-β-D-glucuronide] ? 0.87%
